Test system: OVCAR-8 ovarian
ASSAY METHOD TEXT: NCI-60 one-dose screen, 48 h
CONDITION DESCRIPTION: 10 µM unless noted
About 83,000 compounds went through this panel and 20% of them were active in at least one assay; those are over-represented in the sample as a whole. Activity calls are given as the source filed them. The calls were made as follows: active = growth percent below 10; inactive = the rest.
// one of TRUE for active, FALSE for inactive, no free text

These recorded examples may help you get a feel for the data.
>  <SMILES TEXT>
CN1CCN(CC(=O)N(C)c2ccc(N=C(c3ccccc3)c3c(O)[nH]c4ccc(C#N)cc34)cc2)CC1

>  <LABEL CLASS>
FALSE

$$$$
>  <SMILES TEXT>
O=C1COc2ccccc2C(=O)N1CCCCN1CCCCC1

>  <LABEL CLASS>
FALSE

$$$$
>  <SMILES TEXT>
[2H]c1nc(Nc2ncc(F)c(-c3cc(F)c4nc(C)n(C(C)C)c4c3)n2)c([2H])c([2H])c1CN1CCN(CC)CC1

>  <LABEL CLASS>
FALSE

$$$$
>  <SMILES TEXT>
Cc1cc(SCc2ccc(Cl)cc2Cl)nc(SCc2ccc(Cl)cc2Cl)n1

>  <LABEL CLASS>
FALSE

$$$$
>  <SMILES TEXT>
COc1ccc(Cn2cc3c(c2-c2cc(OC)c(OC)c(OC)c2)CCc2c(CO)noc2-3)cc1

>  <LABEL CLASS>
FALSE

$$$$
>  <SMILES TEXT>
O=C(Nc1ccc(-n2cc(-c3ccncc3)c(-c3ccc(O)c(Cl)c3)n2)cc1)Nc1cc(C(F)(F)F)cc(C(F)(F)F)c1

>  <LABEL CLASS>
FALSE

$$$$

Answer briefly: the call reported for c1ccc(OCC[P+](c2ccccc2)(c2ccccc2)c2ccccc2)cc1 in this assay.
FALSE

What did this assay record as the result for Cc1cccc(NCS(=O)(=O)O)c1 ?
FALSE

# lookup: test call for O=C(Nc1ccc(-n2ccc3c(NC(=O)c4ccccc4)ncnc32)cc1)Nc1ccc(Cl)c(C(F)(F)F)c1
TRUE

###

System: 786-0 renal
ASSAY METHOD TEXT: NCI-60 one-dose screen, 48 h
CONDITION DESCRIPTION: 10 µM unless noted
The panel holds about 83,000 compounds, 20% with a hit somewhere; the sample as a whole holds those more often. Active and inactive are the calls of the source. The calls were made as follows: active = growth percent below 10; inactive = the rest.
Pick one: 1 (active), -1 (inactive)

Illustrative cases are given below, each with its answer.
>  <COMPOUND>
CCC1S/C(=N\N=C(/C)c2cc3ccccc3o2)N(c2ccccc2)C1=O (stereo not drawn)

>  <LABEL CLASS>
-1

$$$$
>  <COMPOUND>
Cl[C@@H]1CCO[C@H](c2cc3ccccc3c3ccccc23)C1

>  <LABEL CLASS>
-1

$$$$
>  <COMPOUND>
O=C(Nc1ccc(-n2ccc3c(NC(=O)c4ccccc4)nccc32)cc1)Nc1cccc(C(F)(F)F)c1

>  <LABEL CLASS>
-1

$$$$
>  <COMPOUND>
Cc1cc2nc(-c3c(N)ncc(C#N)c3-c3ccc(Cl)cc3)[nH]c2cc1C

>  <LABEL CLASS>
-1

$$$$
>  <COMPOUND>
Oc1ccc(Cl)cc1Sc1cc(Cl)ccc1O

>  <LABEL CLASS>
-1

$$$$
>  <COMPOUND>
Nc1nc2ccc(CNc3ccc(C(=O)NC(CC(=O)O)C(=O)O)cc3)cc2c(=O)[nH]1 (stereo not drawn)

>  <LABEL CLASS>
1

$$$$
>  <COMPOUND>
Cc1nccc2c3ccc(OCc4cn(-c5ccc(Br)cc5)nn4)cc3n(CCCc3ccccc3)c12

>  <LABEL CLASS>
1

$$$$
>  <COMPOUND>
Nc1ncnc2c1ccn2-c1cccc(NC(=O)c2cccc(C(F)(F)F)c2)c1

>  <LABEL CLASS>
-1

$$$$
>  <COMPOUND>
CSc1nc(N)nc2c1ncn2C

>  <LABEL CLASS>
-1

$$$$
>  <COMPOUND>
O=S(=O)(CCN1CCOCC1)Nc1cncc(-c2ccc3ncnc(Nc4ccc(F)c(Cl)c4)c3c2)c1

>  <LABEL CLASS>
-1

$$$$

// outcome(item) with item = CCOC(=O)c1noc2c1CCc1c-2cn(Cc2ccc(OC)cc2)c1-c1cc(OC)c(OC)c(OC)c1
-1

Test call, this compound: COc1ccc(NC(=O)COCCOCCNC[C@@H]2C(=O)O[C@H]3[C@H]2CC/C(COC(=O)OC/C2=C/CC[C@@]4(C)O[C@H]4[C@H]4OC(=O)[C@@H](CN(C)C)[C@@H]4CC2)=C\CC[C@@]2(C)O[C@@H]32)c(O)c1C(N)=O
1

How was CCC(CC(C)C)Nc1ccc(NC(CC)CC(C)C)cc1 (stereo not drawn) classified in this test?
-1

###

This listing pairs compounds with measured growth.
Tested on: SF-295 CNS
ASSAY METHOD TEXT: NCI-60 one-dose screen, 48 h (100 = growth as untreated, 0 = no growth, -100 = all killed)
CONDITION DESCRIPTION: 10 µM unless noted
Procedure: Cells are grown in 96 well plates and exposed to the test compound for 48 hours. Compounds are tested at a single concentration, which is 10^-5 M for most compounds. The reported endpoint is percent growth (GI% or GIPRCNT), where numbers from 0 - 100% represent growth inhibition, and numbers from -100% - 0 represent cell death. For example, a value of 40 represents 60% growth inhibition. A value of 0 means no net growth occurred over the course of the experiment. […]
Compounds without any hit were thinned out: in the full panel of roughly 83,000, 20% have a hit.
Answer format: numeric, % implied, no suffix.

Example cases with answers are listed next.
>  <COMPOUND>
O=C1C(Cl)=C(Nc2ccccc2)C(=O)C(Cl)=C1Nc1ccccc1

>  <STUDY TARGET>
SF-295 CNS

>  <growth [%]>
114

$$$$
>  <COMPOUND>
Cc1c(C(C)(C)C)cc(C(C)(C)C)c2c1CN(C)CO2

>  <STUDY TARGET>
SF-295 CNS

>  <growth [%]>
103

$$$$
>  <COMPOUND>
COc1cccc(-c2nc3sccn3c2-c2ccnc(NCCNC(=O)Nc3cccc(C(F)(F)F)c3)n2)c1

>  <STUDY TARGET>
SF-295 CNS

>  <growth [%]>
37.7

$$$$
>  <COMPOUND>
Cc1ccc(N(CC2=NCCN2)c2cccc(O)c2)cc1

>  <STUDY TARGET>
SF-295 CNS

>  <growth [%]>
83.3

$$$$
>  <COMPOUND>
CC(C)CCC[C@@H](C)[C@H]1CC[C@H]2[C@@H]3CC=C4N(c5ccccc5)C(=O)CC[C@]4(C)[C@H]3CC[C@]12C

>  <STUDY TARGET>
SF-295 CNS

>  <growth [%]>
99

$$$$

Tested system SF-295 CNS; growth recorded for [2H]c1nc(Nc2ncc(F)c(-c3cc(F)c4nc(C)n(C(C)C)c4c3)n2)c([2H])c([2H])c1CN1CCN(CC)CC1 was 59.2

Field growth (SF-295 CNS), entry COc1cccc(-c2nc3sccn3c2-c2ccnc(NCCNC(=O)c3ccccc3)n2)c1 : 85.4

Measured growth (SF-295 CNS), entry COc1cc(NC(C)CCCN2C(=O)c3ccccc3C2=O)c2ncccc2c1OC (stereo not given) : 81.1

Record COc1ccc(-c2cnc(-c3ccc(F)cc3)[nH]2)cc1 ; system SF-295 CNS; growth = 96.6

Item O=C1OC(N(Cc2ccc(Cl)cc2)c2ccccc2)c2ccccc21 (stereo not given) ; assay system SF-295 CNS; growth reported as 104

###

System: CCRF-CEM leukemia
ASSAY METHOD TEXT: NCI-60 one-dose screen, 48 h
CONDITION DESCRIPTION: 10 µM unless noted
This is part of a sample that, as a whole, favours compounds with a hit. Of some 83,000 tested, about 20% had one in any assay. The source made the active and inactive calls. How the source made its calls: active means growth percent below 10; inactive means the rest.
Tick one outcome: True (active), False (inactive)

>  <MOLECULE>
CCN(CC)C(=O)C1CCN(C(=O)c2ccccc2)CC1

>  <LABEL CLASS>
False

$$$$
>  <MOLECULE>
O=C1OC(=O)C2C3CC(c4ccccc43)C12 (stereo unspecified)

>  <LABEL CLASS>
False

$$$$
>  <MOLECULE>
C#C[C@@]1(O)[C@@H](CO)O[C@@H](n2cc(C(F)(F)F)c3c(N)ncnc32)[C@@H]1O

>  <LABEL CLASS>
True

$$$$
>  <MOLECULE>
O=C1COc2ccccc2C(=O)N1CCCCNc1ccccc1

>  <LABEL CLASS>
True

$$$$
>  <MOLECULE>
O=C(NCCNc1nccc(-c2c(-c3cccc(O)c3)nc3sccn23)n1)c1ccccc1

>  <LABEL CLASS>
False

$$$$

Short answer needed: outcome of this test for CCc1c(C)c2cc3c(c(C)c2oc1=O)OCC(=O)N3 ?
False

GET /call?item= O=C(Nc1ccc(-n2cc(-c3ccncc3)c(-c3ccc(O)c(Cl)c3)n2)cc1)Nc1cccc(Cl)c1Cl returns the recorded outcome of this test.
False

Assay outcome for CCc1c2cc(Cl)ccc2n2cc(Cc3ccccc3)[nH]c(=O)c12 : what was it?
False

What did the test return for COc1cc(Nc2ncccc2C(=O)Nc2nc3ccc(F)cc3s2)cc(OC)c1OC ?
False

Test call for this molecule, please: CC(C)NCC(O)COc1ccc(CC(N)=O)cc1 (stereo unspecified)
False

Please let me know the test result on file for Oc1ccc(Cl)cc1Sc1cc(Cl)ccc1O .
False
